# Experimental System: T1, Recombinant human IL-2 (human, UniProt P60568 21-153)
# T1 construct: also called rhIL-2; hIL-2
# Test Method Notes: SPR (Biacore 4000), IgG captured on anti-human IgG Fc, rhIL-2 0.11-10 nM
Endpoint Label: kon (M⁻¹ s⁻¹)
Just the number in M⁻¹ s⁻¹, nothing appended.

Q: Can you share its kon? I mean this binder: XPA.92.041 (antibody, V domains shown, Tested as purified full-length human IgG) VH: EVQLVQSGAEVKKPGESLKISCKGSGYNFDTYWIGWVRQMPGRGLEWMGTIYPADSDTRYSPSFQGQVTTSADKSISTAYLQWGSLRASDTAMYYCARFSSSAYDIWGQGTMVTVSS VL: SYELTQPPSVSVSPGQTARITCSGDALPRQFAYWYQQKPGQAPVLVIYKDTERPSGIPERFSGSSSGTTVTLTISGVQAEDEADYYCQSADSSGTYHVFGGGTQLTVLG
A: 5.6e+06
